// reported Efficacy (%) (confirmatory screen) per item
Biological target: CIB1 and αIIb interaction (CIB1-GST : F-αIIb peptide) (Homo sapiens)
Construct: made in house; host or cells: BL-21 plus RIL cells (E. coli)
Assay: FP assay, 1536-well qHTS format (primary and confirmatory screen)
Assay type: binding
Conditions: Table S3, confirmatory screen; negative = inhibition
Returns: string containing the numeric result and its unit.

Use these answered entries as a reference point.
{"compound": "CC(O)C(=O)O.CCOc1ccc2nc3cc(N)ccc3c(N)c2c1.O [NCGC00096056-02]", "Efficacy (%) (confirmatory screen)": "-162%"}
{"compound": "COc1ccc2nc3[nH]nc(C)c3c(NCCOCCO)c2c1 [NCGC00384193-04]", "Efficacy (%) (confirmatory screen)": "-47%"}

Request: Data request, read-out Efficacy (%) (confirmatory screen), for NC(=O)c1cccc(-c2cnc3c(O)ccc(C(=O)O)c3c2)c1.O=C(O)C(F)(F)F [NCGC00241055-01]
Response: -31%

Request: Reported Efficacy (%) (confirmatory screen), compound O=C(NNC(=O)c1nc2ccccc2[nH]1)OCc1ccccc1 [NCGC00181216-01] : ____
Response: -25%

Request: Please give the measured Efficacy (%) (confirmatory screen) for this compound: CN(C)CCCCCCNC(=O)c1cccc(-c2cc(O)c3ncccc3c2)c1.O=C(O)C(F)(F)F [NCGC00247743-01]
Response: -35%

Request: Report Efficacy (%) (confirmatory screen) for COc1cccc(CN(C)c2ccc(S(=O)(=O)Nc3nccs3)cc2)c1O.O=C(O)C(F)(F)F [NCGC00318978-01] please.
Response: -35%

Request: Name the recorded Efficacy (%) (confirmatory screen) for COc1ccc(-n2ncc3c2CCCC3NC(=O)c2ccccc2F)cc1.O=C(O)C(F)(F)F (centres unmarked) [NCGC00273507-01] .
Response: 22%

Request: Field request: Efficacy (%) (confirmatory screen) | item: O=C(O)C(F)(F)F.O=C(c1ccc(-c2cc(O)c3ncccc3c2)cc1)N1CCNCC1 [NCGC00183806-01]
Response: -11%

###

Target: CIB1 and αIIb interaction (GST-CIB1 : F-αIIb peptide) (Homo sapiens, UniProt Q99828)
Construct: made in house; host or cells: BL-21 plus RIL cells (E. coli)
Sequence (Q99828 whole entry): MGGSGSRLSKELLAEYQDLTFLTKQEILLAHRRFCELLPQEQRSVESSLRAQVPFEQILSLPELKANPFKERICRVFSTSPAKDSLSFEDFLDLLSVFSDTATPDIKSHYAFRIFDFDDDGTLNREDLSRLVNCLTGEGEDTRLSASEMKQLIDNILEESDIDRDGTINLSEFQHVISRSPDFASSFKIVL
Assay: FP assay, 384-well format (screen)
Type: binding
Details: 384-well FP assay; Table 1; read-out: FP assay IC50
pIC50: −log10 of the molar value.
We use 5 as the dividing line for pIC50: on or above the line is criterion met, below is criterion not met.

Request: Item `COc1ccccc1C(=O)c1no[n+]([O-])c1C(=O)c1ccccc1OC.O=C(O)C(F)(F)F` with pIC50 of 5 or above?
Response: criterion met

Request: Evaluate `O=C(c1ccccc1C(F)(F)F)c1no[n+]([O-])c1C(=O)c1ccccc1C(F)(F)F` : pIC50 at minimum 5?
Response: criterion met

Request: Hi, just wondering whether `O=C(c1cccc(OCc2ccccc2)c1)c1no[n+]([O-])c1C(=O)c1cccc(OCc2ccccc2)c1` shows pIC50 of 5 or higher.
Response: criterion not met

###

Target: CIB1 and αIIb interaction (CIB1-GST : F-αIIb peptide) (Homo sapiens, UniProt Q99828)
Construct: made in house; host or cells: BL-21 plus RIL cells (E. coli)
Assay: FP assay, 1536-well qHTS format (primary and confirmatory screen)
Type: binding
Conditions: qHTS primary screen hits, Table S2; negative = inhibition
Answer 0 (no) if Efficacy (%) is under -40%, and 1 (yes) if it is -40% or more.

These recorded examples may help you get a feel for the data.
{"compound": "CN(N=O)c1ccc(O)c(O)c1 [NCGC00015706-04]", "assigned.label": "0 (no)"}
{"compound": "Cc1ccc(S(=O)(=O)Nc2cnccc2C(=O)Nc2nc(-c3ccccc3)cs2)cc1.O=C(O)C(F)(F)F [NCGC00262386-01]", "assigned.label": "0 (no)"}
{"compound": "CN(C)c1ccc(C(=C2C=CC(=[N+](C)C)C=C2)c2ccc(N(C)C)cc2)cc1.[Cl-] [NCGC00091112-09]", "assigned.label": "0 (no)"}
{"compound": "COc1ccc(C(=O)O[C@H]2C=COC=C3C=C4C(=O)N(C)C(=S)C(=O)N4[C@@H]32)cc1Oc1cc(C=O)ccc1O [NCGC00384899-01]", "assigned.label": "0 (no)"}
{"compound": "O=C(O)CCCC[P+](c1ccccc1)(c1ccccc1)c1ccccc1.[Br-] [NCGC00261975-01]", "assigned.label": "0 (no)"}
{"compound": "Cc1ccc(S(=O)(=O)Nc2cnccc2C(=O)Nc2nc(-c3cccc(Cl)c3)cs2)cc1.O=C(O)C(F)(F)F [NCGC00318956-01]", "assigned.label": "1 (yes)"}

Request: Answer whether Efficacy (%) of O=Cc1c(-c2ccccc2)no[n+]1[O-] [NCGC00168371-01] is greater than or equal to -40%.
Response: 0 (no)

Request: # check: Efficacy (%) of O=C(O)C(F)(F)F.O=C(O)c1csc(-n2nc(-c3ccc(F)c(Cc4ccccc4)c3)cc2O)n1 [NCGC00356005-01] is greater than or equal to -40%
Response: 0 (no)

Request: Could you verify whether the entry COc1cccc(CNc2ccc(S(=O)(=O)Nc3ccc(C4CCNCC4)cc3)cc2)c1O.O=C(O)C(F)(F)F [NCGC00343917-01] shows Efficacy (%) of no less than -40%?
Response: 0 (no)

Request: Assess whether reported Efficacy (%) for Cc1ccc(NS(=O)(=O)c2cc(Br)cc3c2NC(=O)CC3)cc1Cl.O=C(O)C(F)(F)F [NCGC00242331-01] sits at -40% or higher.
Response: 1 (yes)

###

Biological target: CIB1 and αIIb interaction (CIB1-GST : F-αIIb peptide) (Homo sapiens)
Construct: made in house; host or cells: BL-21 plus RIL cells (E. coli)
Test: FP assay, 1536-well qHTS format (primary and confirmatory screen)
Format: binding
Settings: qHTS primary screen hits, Table S2; read-out: IC50
Each entry below carries its reported log10 of IC50.
Base-10 log of IC50, unit µM.

The cases that follow already have their log10 of IC50 on record.
{"structure.smiles": "O=C(O)C(F)(F)F.O=S(=O)(Nc1ccc(C2CCNCC2)cc1)c1ccc(NCc2ccc(Br)cc2O)cc1", "experimental.system": "CIB1 and αIIb interaction (CIB1-GST : F-αIIb peptide) (Homo sapiens)", "assay.value": 1.75}
{"structure.smiles": "C=CCNc1oc(-c2ccc(-c3ccccc3)cc2)nc1C#N.O=C(O)C(F)(F)F", "experimental.system": "CIB1 and αIIb interaction (CIB1-GST : F-αIIb peptide) (Homo sapiens)", "assay.value": 1.00}
{"structure.smiles": "Cc1cccc(C(=O)c2no[n+]([O-])c2C(=O)c2cccc(C)c2)c1.O=C(O)C(F)(F)F", "experimental.system": "CIB1 and αIIb interaction (CIB1-GST : F-αIIb peptide) (Homo sapiens)", "assay.value": 0.90}
{"structure.smiles": "NC(=O)N/N=C/c1ccc([N+](=O)[O-])o1", "experimental.system": "CIB1 and αIIb interaction (CIB1-GST : F-αIIb peptide) (Homo sapiens)", "assay.value": 2.05}
{"structure.smiles": "Cc1ccc(S(=O)(=O)Nc2ccc(Br)cc2C(=O)Nc2nc(-c3ccccc3)cs2)cc1.O=C(O)C(F)(F)F", "experimental.system": "CIB1 and αIIb interaction (CIB1-GST : F-αIIb peptide) (Homo sapiens)", "assay.value": 1.30}

Request: // returns reported log10 of IC50 for input `CCCCCc1c2c(cc(O)c1C(=O)O)OC(=O)c1c(cc(OC)cc1C(=O)CCCC)O2.O=C(O)C(F)(F)F`
Response: 1.10

Request: Recorded log10 of IC50 for `O=S1(=O)N=C(Oc2ccccc2)c2ccccc21` , please?
Response: 1.90

Request: So what does the record say about log10 of IC50 for `CCCc1c(O)c(O)c(C(=O)O)c2cc(Cc3ccccc3)c(C)cc12` ?
Response: 1.65

###

# key: entry, value: CONFIRMATORY SCREEN Curve Class
Biological target: CIB1 and αIIb interaction (CIB1-GST : F-αIIb peptide) (Homo sapiens)
Construct: made in house; host or cells: BL-21 plus RIL cells (E. coli)
Experiment: FP assay, 1536-well qHTS format (primary and confirmatory screen)
Format: binding
Settings: confirmatory screen, qHTS curve class; negative sign = inhibitory curve
Please state the value as a number alone, without comment.

Observe how each entry below is paired with its result.
{"structure.smiles": "COc1ccc(CNC(=O)c2nc(S(=O)(=O)Cc3ccccc3)ncc2Cl)cc1.O=C(O)C(F)(F)F", "assay.value": -1.4}
{"structure.smiles": "CC(C)(C)c1ccc(SC2=NS(=O)(=O)c3ccccc32)cc1", "assay.value": -2.4}

Request: Consider the compound shown here: `CCc1ccc(/C=C2/SC(=S)NC2=O)cc1` What is its recorded CONFIRMATORY SCREEN Curve Class?
Response: -1.1
